Consider the following molecules and their measured pKd readings.
target: human TYK2 (JH2domain-pseudokinase) (Homo sapiens (Human)); test: TYK2 JH2 Domain Binding Assay (KINOMEscan, DiscoveRx); settings: 11-point dilution, duplicate
pKd: −log10 of the molar value.
ASSAY READOUT: pKd

smiles_input=COc1c(Nc2cc(Nc3cccc(C#N)n3)nc3[nH]c(C(F)F)nc23)cccc1-c1nccs1 study_target="human TYK2 (JH2domain-pseudokinase) (Homo sapiens (Human))" assay_readout=pKd result="8.00 to 9.00"
smiles_input=Cc1cn(C)nc1-c1ccc(Nc2cc(Nc3cnc(C)c(C)n3)nc3[nH]c(C(F)F)nc23)c(S(C)(=O)=O)c1 study_target="human TYK2 (JH2domain-pseudokinase) (Homo sapiens (Human))" assay_readout=pKd result="9.30 to 10.00"
smiles_input=Cc1cc(C)c(-c2ccc(Nc3cc(NC(=O)C4CC4)nc4[nH]c(C(F)F)nc34)c(S(C)(=O)=O)c2)o1 study_target="human TYK2 (JH2domain-pseudokinase) (Homo sapiens (Human))" assay_readout=pKd result="8.00 to 9.00"
smiles_input=Cc1cc(Nc2cc(Nc3ccc([C@H]4CCCCO4)cc3S(C)(=O)=O)c3nc(C)[nH]c3n2)nc(C)n1 study_target="human TYK2 (JH2domain-pseudokinase) (Homo sapiens (Human))" assay_readout=pKd result="> 10.00"
smiles_input=CC1(C)CC[C@@H](c2ccc(Nc3cc(NC(=O)C4CC4)nc4[nH]c(C(F)F)nc34)c(S(C)(=O)=O)c2)OC1 study_target="human TYK2 (JH2domain-pseudokinase) (Homo sapiens (Human))" assay_readout=pKd result="9.30 to 10.00"
smiles_input=[2H]C([2H])([2H])N(c1ccccc1Nc1cc(Nc2cc(C)nc(C)n2)nc2[nH]c(C(F)F)nc12)S(C)(=O)=O study_target="human TYK2 (JH2domain-pseudokinase) (Homo sapiens (Human))" assay_readout=pKd result="9.30 to 10.00"
smiles_input=CS(=O)(=O)c1cc([C@@H]2CCCOC2)ccc1Nc1cc(NC(=O)[C@@H]2CC2(F)F)nc2[nH]c(C(F)F)nc12 study_target="human TYK2 (JH2domain-pseudokinase) (Homo sapiens (Human))" assay_readout=pKd result="8.00 to 9.00"

---

target: human TYK2 (JH2domain-pseudokinase) (Homo sapiens (Human), UniProt P29597); experiment: TYK2 JH2 Domain Binding Assay (KINOMEscan, DiscoveRx); conditions: 11-point dilution, duplicate
Sequence (P29597 556-888): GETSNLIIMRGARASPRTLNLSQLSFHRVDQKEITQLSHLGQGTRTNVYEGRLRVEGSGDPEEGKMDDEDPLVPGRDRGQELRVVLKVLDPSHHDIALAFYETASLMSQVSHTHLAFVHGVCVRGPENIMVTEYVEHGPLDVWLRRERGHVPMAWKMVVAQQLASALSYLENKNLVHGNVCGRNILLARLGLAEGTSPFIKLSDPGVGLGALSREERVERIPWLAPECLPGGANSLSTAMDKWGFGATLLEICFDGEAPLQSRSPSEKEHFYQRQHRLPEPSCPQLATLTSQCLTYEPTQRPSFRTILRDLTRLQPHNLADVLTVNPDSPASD
ASSAY READOUT: Kd

compound="COc1c(Nc2cc(Nc3cnc(N4CCOCC4)c(C#N)n3)nc3[nH]c(C)nc23)cccc1-c1nnn(C)n1 [I-116]" assay_readout=Kd result="1 to 10 nM"
compound="Cc1nc2c(Nc3ccc(C4CCCO4)cc3S(C)(=O)=O)cc(Nc3ccc(C(C)C)c(C#N)n3)nc2[nH]1 (stereo not shown) [I-575]" assay_readout=Kd result="0.1 to 0.5 nM"
compound="Cc1nc2c(Nc3ccc(C4CCC4)cc3S(C)(=O)=O)cc(NC(=O)[C@@H]3C[C@@H]3F)nc2[nH]1 [I-414]" assay_readout=Kd result="0.1 to 0.5 nM"
compound="COCCOc1ccc(Nc2cc(Nc3ccc(F)cc3S(C)(=O)=O)c3nc(C)[nH]c3n2)nc1C#N [I-622]" assay_readout=Kd result="< 0.1 nM"
compound="Cc1cnn(-c2ccc(Nc3cc(NC(=O)C4CC4)nc4[nH]c(C(F)F)nc34)c(N(C)S(C)(=O)=O)c2)c1 [I-135]" assay_readout=Kd result="0.1 to 0.5 nM"
compound="CS(=O)(=O)c1cc([C@@H]2CCCCO2)ccc1Nc1cc(Nc2cc3n(n2)CCOC3)nc2[nH]c(C(F)F)nc12 [I-516]" assay_readout=Kd result="0.1 to 0.5 nM"
compound="Cc1nc2c(Nc3ccc(-c4cn(C)nc4C)cc3N(C)S(C)(=O)=O)cc(NC(=O)C3CC3)nc2[nH]1 [I-194]" assay_readout=Kd result="> 10 nM"
